Hello, the source for this data is patent US20240336909, in case you need it.

target: AxCT mask27 EGFR EH104 L064 version 1
Measured quantity: Percent cleavage

Request: Suppose we examine the protein MMP-1 (protein) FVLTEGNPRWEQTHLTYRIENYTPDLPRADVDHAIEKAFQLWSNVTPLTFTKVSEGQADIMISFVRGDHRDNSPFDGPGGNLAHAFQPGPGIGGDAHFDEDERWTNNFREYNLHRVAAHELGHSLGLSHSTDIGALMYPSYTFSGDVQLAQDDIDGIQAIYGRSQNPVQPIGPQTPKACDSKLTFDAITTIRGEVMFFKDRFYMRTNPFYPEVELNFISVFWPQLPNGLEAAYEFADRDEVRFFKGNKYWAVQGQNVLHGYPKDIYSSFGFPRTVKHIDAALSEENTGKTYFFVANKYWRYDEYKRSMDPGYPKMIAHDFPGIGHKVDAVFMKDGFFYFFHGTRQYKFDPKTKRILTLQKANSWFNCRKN ; what Percent cleavage value has been reported?
Response: 0%
